Each recorded value in this set is attributed to patent US8969565B2.

This section presents compounds with their documented IC50 values.
# Tested On: AAK1 (Homo sapiens)
# Construct: HA; expressed in transfected cells; host or cells: HEK293F
# Protocol Text: HEK281 cell-based assay (phospho-mu2 Western blot in transfected HEK293F cells)
# Setup Conditions: 3 hours incubation, read-out: CBA IC50

Worked cases, answers included:
[[record]]
compound = "Cc1nc(C)c(-c2cnc3ccc(NC[C@@H]4CCCN4C(=O)CC(C)C)nn23)s1"
measured_parameter = "IC50"
value_measured = "≤ 10 nM"

[[record]]
compound = "CC(C)(C)CNc1ccc2ncc(-c3ccc(CN)cc3)n2n1"
measured_parameter = "IC50"
value_measured = "≤ 100 nM"

[[record]]
compound = "CC(C)OC(=O)N1CCN(c2ccc3ncc(-c4ccccc4F)n3n2)CC1"
measured_parameter = "IC50"
value_measured = "≤ 100 nM"

[[record]]
compound = "COc1cnccc1-c1cnc2ccc(NCCOCC(C)C)nn12"
measured_parameter = "IC50"
value_measured = "≤ 100 nM"

[[record]]
compound = "CN(CCCNc1ccc2ncc(-c3ccc(CN)cc3)n2n1)C(=O)OC(C)(C)C"
measured_parameter = "IC50"
value_measured = "≤ 100 nM"

[[record]]
compound = "CC(C)COC(=O)N(C)CCNc1ccc2ncc(-c3ccc(C(N)=O)cc3)n2n1"
measured_parameter = "IC50"
value_measured = "≤ 100 nM"

[[record]]
compound = "COc1ccccc1-c1cnc2ccc(N3CC[C@H](N(C)C(=O)N4CCCC4)C3)nn12"
measured_parameter = "IC50"
value_measured = "≤ 100 nM"

[[record]]
compound = "CNC(=O)c1cnc2ccc(NC[C@@H]3CCCN3C(=O)OC(C)(C)C)nn12"
measured_parameter = "IC50"
value_measured = "≤ 100 nM"


Could you now consider this next compound?
# input compound: "CC(C)OC(=O)N1CCC[C@H]1CNc1ccc2ncc(Br)n2n1" ; wanted: its IC50
≤ 1000 nM

----------
# Tested On: AAK1 (Homo sapiens, UniProt Q2M2I8)
# Construct: HA; expressed in transfected cells; host or cells: HEK293F
# Sequence (Q2M2I8 1-863 isoform Q2M2I8-2): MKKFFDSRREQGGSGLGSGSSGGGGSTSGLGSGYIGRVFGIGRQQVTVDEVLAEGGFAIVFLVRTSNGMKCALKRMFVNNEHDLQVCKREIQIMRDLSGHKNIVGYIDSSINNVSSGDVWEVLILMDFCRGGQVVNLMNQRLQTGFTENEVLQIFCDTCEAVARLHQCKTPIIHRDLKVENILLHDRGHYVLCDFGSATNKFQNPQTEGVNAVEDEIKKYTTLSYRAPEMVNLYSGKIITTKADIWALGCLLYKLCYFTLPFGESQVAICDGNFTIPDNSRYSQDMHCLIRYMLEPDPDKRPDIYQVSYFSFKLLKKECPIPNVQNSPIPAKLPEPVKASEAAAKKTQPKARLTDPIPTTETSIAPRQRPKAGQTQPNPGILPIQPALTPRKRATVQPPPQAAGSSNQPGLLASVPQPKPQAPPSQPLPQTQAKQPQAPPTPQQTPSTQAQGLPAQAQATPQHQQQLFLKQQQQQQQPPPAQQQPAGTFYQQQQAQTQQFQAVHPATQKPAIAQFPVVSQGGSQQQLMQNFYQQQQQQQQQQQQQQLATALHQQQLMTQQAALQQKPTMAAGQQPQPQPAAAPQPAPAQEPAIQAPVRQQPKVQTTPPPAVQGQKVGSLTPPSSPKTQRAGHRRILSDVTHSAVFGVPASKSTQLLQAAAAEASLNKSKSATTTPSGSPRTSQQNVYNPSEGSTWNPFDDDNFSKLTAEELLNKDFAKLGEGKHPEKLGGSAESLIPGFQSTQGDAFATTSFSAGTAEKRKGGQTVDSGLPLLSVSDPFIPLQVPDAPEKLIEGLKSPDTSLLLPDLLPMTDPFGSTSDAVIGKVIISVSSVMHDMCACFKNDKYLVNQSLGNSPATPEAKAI
# Protocol Text: HEK281 cell-based assay (phospho-mu2 Western blot in transfected HEK293F cells)
# Setup Conditions: 3 hours incubation, read-out: CBA IC50
pIC50: −log10 of the molar value.
Measured Parameter: pIC50

Recorded pIC50, per entry:
[[record]]
molecule = "CCCCNc1ccc2ncc(-c3ccc(OCCN)cc3)n2n1"
value_measured = "≥ 7.00"

[[record]]
molecule = "CC(C)(C)NC(=O)N1CCC[C@H]1CNc1ccc2ncc(-c3ccncc3)n2n1"
value_measured = "≥ 7.00"

[[record]]
molecule = "COc1cnccc1-c1cnc2ccc(NC[C@@H]3CCN(C(=O)OC(C)(C)C)C3)nn12"
value_measured = "≥ 6.00"

[[record]]
molecule = "COc1ccccc1-c1cnc2ccc(NC[C@@H]3CCCN3C(=O)OC(C)(C)C)nn12"
value_measured = "≥ 8.00"

[[record]]
molecule = "COc1ccccc1-c1cnc2ccc(NCCN(C)C(=O)OC(C)C)nn12"
value_measured = "≥ 7.00"

[[record]]
molecule = "CC(C)OC(=O)N(C)CCNc1ccc2ncc(-c3ccc([C@@H]4CCCN4)cc3)n2n1"
value_measured = "≥ 7.00"


Which value of pIC50 has been reported for "CC(C)(C)OC(=O)N1CCN(c2ccc3ncc(Cl)n3n2)CC1" in the records?
≥ 7.00

I have this molecule here, "CC(C)(C)OC(=O)N1CCC[C@H]1CNc1ccc2ncc(Cl)n2n1" , and I need its recorded pIC50.
≥ 7.00
